- ASSAY TARGET: HIV-1 protease (Human immunodeficiency virus type 1 group M subtype B, UniProt P04585)
- TEST PROTOCOL: biochemical
- EXPERIMENTAL SETUP: read-out: HIV-1 Protease % Inhib, dose 10.000 uM
# inhibition at 10 µM per entry

MOLECULE | inhibition at 10 µM [%]
CC(C)CC(c1cccc(NS(=O)(=O)c2ccc(F)cc2)c1)c1c(O)c2c(oc1=O)CCCCCC2 (stereo not shown) | 98.5
NC(=O)c1ccc(S(=O)(=O)Nc2cccc(C(c3c(O)c4c(oc3=O)CCCCCC4)C3CC3)c2)cc1 (stereo not shown) [Example 365A] | 117
O=c1oc2c(c(O)c1C(c1cccc(NS(=O)(=O)C=Cc3ccccc3)c1)C1CC1)CCCCCC2 (stereo not shown) | 99.3
CCC1CCCCc2c1oc(=O)c(C(c1ccccc1)C1CC1)c2O (stereo not shown) | 97.6
CC(C)(C)OC(=O)NCC(=O)Nc1cccc(C(c2c(O)c3c(oc2=O)CCCCCC3)C2CC2)c1 (stereo not shown) [Example 200] | 105
COc1ccc2c(c1)CCCC2c1c(O)c2ccccc2oc1=O (stereo not shown) | 47.8
O=c1oc2c(c(O)c1C(c1cccc(NS(=O)(=O)c3cccc(N(CCO)CCO)c3)c1)C1CC1)CCCCCC2 (stereo not shown) [Example 355 (Second Title Compound)] | 110
CC(C)CCC1CCCCCc2c1oc(=O)c(C(c1ccccc1)C1CC1)c2O (stereo not shown) | 104
CC1(C)C2CCC1(CS(=O)(=O)Nc1cccc(C(c3c(O)c4c(oc3=O)CCCCCC4)C3CC3)c1)C(=O)C2 (stereo not shown) | 102
CCS(=O)(=O)Nc1cccc(C(c2c(O)c3c(oc2=O)CCCCCC3)C2CC2)c1 (stereo not shown) | 97.5
O=c1oc2c(c(O)c1C(c1cccc(NS(=O)(=O)c3cc(Cl)cc(Cl)c3)c1)C1CC1)CCCCCC2 (stereo not shown) | 105
CCC(c1cccc(C(=O)NCc2nc3ccccc3[nH]2)c1)c1c(O)c2ccccc2oc1=O (stereo not shown) | 57.9
CCCC(c1cccc(NS(=O)(=O)c2cccc3cccnc23)c1)c1c(O)c2c(oc1=O)CCCCCC2 (stereo not shown) | 107
COc1ccc2c(O)c(C(C3CC3)C3CC3)c(=O)oc2c1 | 62.6
CCC(c1ccc(OCC(O)CO)cc1)c1c(O)c2ccccc2oc1=O (stereo not shown) | 12.3
O=C(Nc1cccc(C(c2c(O)c3c(oc2=O)CCCCCC3)C2CC2)c1)Oc1ccccc1 (stereo not shown) | 77.2
